Record set: IC50 | Coagulation factor X (Homo sapiens, UniProt P00742) | literature, multiple sources.
Reported endpoint: IC50 (nM)

{"Smiles notation": "C#CCO[C@@H]1C[C@]23CC[C@H]4[C@@](C)(CCC[C@@]4(C)C(=O)OCC)[C@@H]2CC[C@@]1(C)C3", "Quantity unit": "nM", "IC50": 32400}
{"Smiles notation": "CN1CCc2cc(C(=O)N3CCN(S(=O)(=O)c4ccc5cc(Cl)ccc5c4)CC3)sc2C1", "Quantity unit": "nM", "IC50": 105}
{"Smiles notation": "COc1ccc(C(=O)N2CN(c3ccc(N4CCCCC4=O)cc3)C(=O)c3cc(OC)ccc32)cc1", "Quantity unit": "nM", "IC50": 113000}

a: N=C(c1ccc(C(=O)Nc2ccccc2C(=O)Nc2ccc(Cl)cn2)cc1)N1CCS(=O)(=O)CC1
b: N=C(N)c1cccc(OCC(=O)Nc2ccc(C(=O)N3CC=CC3)cc2)c1
Qu. Just curious, which one has the larger IC50 reading, a or b ? Let me know the label of the one you choose.
Ans. a
(a: 256 nM, b: 6.3 nM)
